target entity: F508del V470 CFTR (Homo sapiens, UniProt P13569, DEL508-508)
Sequence (P13569 with tags, fused parts or gaps DEL508-508): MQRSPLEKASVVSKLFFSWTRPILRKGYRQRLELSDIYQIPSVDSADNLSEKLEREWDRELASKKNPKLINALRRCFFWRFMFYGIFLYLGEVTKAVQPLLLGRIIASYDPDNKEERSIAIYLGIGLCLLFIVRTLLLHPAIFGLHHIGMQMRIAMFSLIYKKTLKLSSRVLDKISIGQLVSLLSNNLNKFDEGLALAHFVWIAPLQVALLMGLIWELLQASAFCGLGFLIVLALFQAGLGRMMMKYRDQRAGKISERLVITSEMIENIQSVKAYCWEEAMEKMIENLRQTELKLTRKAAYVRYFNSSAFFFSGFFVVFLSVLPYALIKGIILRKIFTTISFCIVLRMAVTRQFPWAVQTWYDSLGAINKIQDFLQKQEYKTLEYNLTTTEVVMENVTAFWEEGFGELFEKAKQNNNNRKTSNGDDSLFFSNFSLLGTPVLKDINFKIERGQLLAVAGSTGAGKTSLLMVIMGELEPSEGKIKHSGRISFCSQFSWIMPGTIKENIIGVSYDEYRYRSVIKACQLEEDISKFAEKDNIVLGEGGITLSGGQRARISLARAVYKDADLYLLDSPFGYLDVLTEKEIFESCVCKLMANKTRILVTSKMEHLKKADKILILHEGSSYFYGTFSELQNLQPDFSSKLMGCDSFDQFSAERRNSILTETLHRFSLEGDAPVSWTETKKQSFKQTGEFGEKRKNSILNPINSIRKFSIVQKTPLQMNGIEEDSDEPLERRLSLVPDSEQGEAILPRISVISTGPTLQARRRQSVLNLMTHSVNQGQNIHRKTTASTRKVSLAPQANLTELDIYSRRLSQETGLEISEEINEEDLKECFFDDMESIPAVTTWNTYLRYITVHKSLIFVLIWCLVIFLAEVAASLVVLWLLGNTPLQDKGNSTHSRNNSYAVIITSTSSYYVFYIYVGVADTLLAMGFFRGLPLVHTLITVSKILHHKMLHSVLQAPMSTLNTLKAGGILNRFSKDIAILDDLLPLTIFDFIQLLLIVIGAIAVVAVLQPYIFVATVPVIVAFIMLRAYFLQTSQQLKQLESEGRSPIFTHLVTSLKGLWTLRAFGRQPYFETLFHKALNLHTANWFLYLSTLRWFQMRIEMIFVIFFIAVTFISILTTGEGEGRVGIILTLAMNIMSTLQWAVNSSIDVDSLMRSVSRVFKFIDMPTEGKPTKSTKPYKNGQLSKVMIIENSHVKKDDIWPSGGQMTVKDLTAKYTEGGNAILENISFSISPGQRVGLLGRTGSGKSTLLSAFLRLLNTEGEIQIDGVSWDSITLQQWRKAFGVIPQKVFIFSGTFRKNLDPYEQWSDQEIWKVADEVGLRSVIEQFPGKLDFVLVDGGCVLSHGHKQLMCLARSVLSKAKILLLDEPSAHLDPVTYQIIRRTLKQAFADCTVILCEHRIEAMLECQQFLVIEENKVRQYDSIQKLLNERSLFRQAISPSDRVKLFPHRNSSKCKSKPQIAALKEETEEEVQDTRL
test details: FRT Ion Flux Assay of F508del CFTR Potentiation
details: FRT cells expressing F508del V470 CFTR and halide-sensitive YFP, forskolin 20 uM, 30 min
assay metric: EC50 (nM)

Return EC50 (reported value) for this molecule: CCC(c1cnn(-c2ccccc2F)c1)c1c(C#N)c(-c2cnc(C(F)(F)F)nc2)c2c(N)ncnn12 (single isomer, unassigned) [Example 14] 6.59

Return EC50 (reported value) for this molecule: CCC(c1cn(-c2ccccc2)nn1)n1nc(-c2cnc(C(F)(F)F)nc2)c2c(N)ncnc21 (single isomer, unassigned) [Example 94] 50.3

Return EC50 (reported value) for this molecule: CC(c1cn(-c2ccccc2F)nn1)c1cc(-c2cnc(C(F)(F)F)nc2)c2c(N)ncnn12 (single isomer, unassigned) [Example 54] 7.4

[1] CC(c1cnn(-c2ccc(F)cc2F)c1)c1c(C#N)c(-c2cnc(C(F)(F)F)nc2)c2c(N)ncnn12 (single isomer, unassigned) [Example 20]
[2] CCC(c1cn(-c2ccc(F)cc2F)nn1)c1cc(-c2cnc(C(F)(F)F)nc2)c2c(N)ncnn12 (single isomer, unassigned) [Example 60]
[3] CC(c1cc(-c2ccccc2F)no1)c1c(C#N)c(-c2cnc(C(F)(F)F)nc2)c2c(N)ncnn12 (single isomer, unassigned) [Example 19]
[4] CC(c1cn(-c2ccc(F)cc2F)nn1)c1cc(-c2cnc(C(F)(F)F)nc2)c2c(N)ncnn12 (single isomer, unassigned) [Example 55]
Put the items in order so that reported EC50 rises from first to last. # list labels per requested ordering 2, 3, 1, 4

* * *

target entity: CFTR (Homo sapiens, UniProt P13569)
test details: Ussing Chamber Electrophysiology Assay of CFTR Potentiation in CF Bronchial Epithelial Cells
details: primary CF hBE cells, short-circuit current, scaled to DMSO (0%) and positive control potentiator (100%)
pEC50: −log10 of the molar value.
assay metric: pEC50

Worked cases, answers included:
Return pEC50 (reported value) for this compound: CC(c1cn(-c2ccccc2F)nn1)c1cc(-c2cnc(C(F)(F)F)nc2)c2c(N)ncnn12 (single isomer, unassigned) [Example 54] 8.19

Return pEC50 (reported value) for this compound: CCC(c1cn(-c2ccccc2F)nn1)n1nc(-c2cnc(C(F)(F)F)nc2)c2c(N)ncnc21 (single isomer, unassigned) [Example 90] 7.50

Return pEC50 (reported value) for this compound: CCC(c1cn(-c2ccc(F)c(F)c2)nn1)c1cc(-c2cnc(C(F)(F)F)nc2)c2c(N)ncnn12 (single isomer, unassigned) [Example 63] 7.71

[a] CCC(c1cn(-c2ccc(F)cc2F)nn1)n1nc(-c2cnc(C(F)(F)F)nc2)c2c(N)ncnc21 (single isomer, unassigned)
[b] CC(c1cnn(-c2ccccc2F)c1)c1c(C#N)c(-c2cnc(C(F)(F)F)nc2)c2c(N)ncnn12 (single isomer, unassigned) [Example 13]
Kindly identify which of a and b has the larger recorded pEC50 value. Select an item and report its label. b

* * *

target entity: F508del V470 CFTR (Homo sapiens, UniProt P13569, DEL508-508)
test details: FRT Ion Flux Assay of F508del CFTR Potentiation
details: FRT cells expressing F508del V470 CFTR and halide-sensitive YFP, forskolin 20 uM, 30 min
assay metric: EC50 (nM)

Worked cases, answers included:
Return EC50 (reported value) for this molecule: CCC(c1cnn(-c2ccccc2F)c1)c1c(C#N)c(-c2cnc(C(F)(F)F)nc2)c2c(N)ncnn12 (single isomer, unassigned) [Example 15] 0.56

Return EC50 (reported value) for this molecule: CC(c1cn(-c2ccc(F)cc2F)nn1)c1cc(-c2cnc(C(F)(F)F)nc2)c2c(N)ncnn12 (single isomer, unassigned) [Example 56] 8.76

[a] CC(c1cc(-c2ccccc2F)no1)c1c(C#N)c(-c2cnc(C(F)(F)F)nc2)c2c(N)ncnn12 (single isomer, unassigned) [Example 18]
[b] N#Cc1c(-c2cnc(C(F)(F)F)nc2)c2c(N)ncnn2c1Cc1cnn(-c2ccccc2F)c1
Kindly identify which of a and b has the larger recorded EC50 value. Select an item and report its label. a
(a: 3.1 nM, b: 0.57 nM)

* * *

target entity: F508del V470 CFTR (Homo sapiens, UniProt P13569, DEL508-508)
test details: FRT Ion Flux Assay of F508del CFTR Potentiation
details: FRT cells expressing F508del V470 CFTR and halide-sensitive YFP, forskolin 20 uM, 30 min
Structures can show the parent of a compound that is named as a salt.
assay metric: EC50 (nM)

[P] Nc1ncnn2c(Cc3cn(-c4ccccc4F)nn3)nc(-c3ccc(Cl)cc3)c12 [Example 93, trifluoroacetate]
[Q] CC(c1cn(-c2cc(F)ccc2F)nn1)c1cc(-c2cnc(C(F)(F)F)nc2)c2c(N)ncnn12 (single isomer, unassigned)
[R] CCC(c1cnn(-c2ccccc2F)c1)n1nc(-c2cnc(C(F)(F)F)nc2)c2c(N)ncnc21 (single isomer, unassigned) [Example 88]
Order the records by EC50, with each subsequent value no larger than the one before. # list labels per requested ordering R, P, Q

* * *

target entity: F508del V470 CFTR (Homo sapiens, UniProt P13569, DEL508-508)
test details: FRT Ion Flux Assay of F508del CFTR Potentiation
details: FRT cells expressing F508del V470 CFTR and halide-sensitive YFP, forskolin 20 uM, 30 min
pEC50: −log10 of the molar value.
assay metric: pEC50

[1] CCC(c1cn(-c2ccccc2F)nn1)n1nc(-c2cnc(C(F)(F)F)nc2)c2c(N)ncnc21 (single isomer, unassigned) [Example 89]
[2] N#Cc1c(-c2cnc(C(F)(F)F)nc2)c2c(N)ncnn2c1Cc1cn(-c2ccccc2F)nn1 [Example 22]
[3] CCC(c1cnn(-c2ccc(F)cc2F)c1)c1c(C#N)c(-c2cnc(C(F)(F)F)nc2)c2c(N)ncnn12 (single isomer, unassigned) [Example 16]
With the 3 molecules above, produce a list ordered by ascending pEC50. # list labels per requested ordering 1, 2, 3

* * *

target entity: CFTR (Homo sapiens, UniProt P13569)
test details: Ussing Chamber Electrophysiology Assay of CFTR Potentiation in CF Bronchial Epithelial Cells
details: primary CF hBE cells, short-circuit current, scaled to DMSO (0%) and positive control potentiator (100%)
assay metric: EC50 (nM)

Worked cases, answers included:
Return EC50 (reported value) for this compound: CCC(c1cn(-c2ccccc2F)nn1)c1cc(-c2cncnc2OC)c2c(N)ncnn12 (single isomer, unassigned) [Example 66] 123

Return EC50 (reported value) for this compound: CCC(c1cn(-c2cc(F)ccc2F)nn1)c1c(C#N)c(-c2cnc(C(F)(F)F)nc2)c2c(N)ncnn12 (single isomer, unassigned) 13

Return EC50 (reported value) for this compound: CCC(c1cn(-c2ccccc2F)nn1)c1cc(-c2cncnc2OC)c2c(N)ncnn12 (stereo not shown) [Example 83] 16

Return EC50 (reported value) for this compound: CC(c1cn(-c2ccc(F)cc2F)nn1)c1cc(-c2cnc(C(F)(F)F)nc2)c2c(N)ncnn12 (single isomer, unassigned) [Example 56] 7.48

Return EC50 (reported value) for this compound: CC(c1cc(-c2ccccc2F)no1)c1c(C#N)c(-c2cnc(C(F)(F)F)nc2)c2c(N)ncnn12 (single isomer, unassigned) [Example 19] 5

Return EC50 (reported value) for this compound: CCC(c1cnn(C(C)C)c1)c1c(C#N)c(-c2cnc(C(F)(F)F)nc2)c2c(N)ncnn12 (single isomer, unassigned) [Example 10] 48

[I] CCC(c1cn(-c2cc(F)ccc2F)nn1)c1cc(-c2cnc(C(F)(F)F)nc2)c2c(N)ncnn12 (single isomer, unassigned) [Example 61]
[II] CCC(c1cn(-c2cc(F)ccc2F)nn1)c1cc(-c2cnc(C(F)(F)F)nc2)c2c(N)ncnn12 (single isomer, unassigned) [Example 62]
Kindly identify which of I and II has the larger recorded EC50 value. Select an item and report its label. I
(I: 73.7 nM, II: 9.95 nM)

[A] CCC(c1cn(-c2ccccc2F)nn1)c1c(C#N)c(-c2cnc(C(F)(F)F)nc2)c2c(N)ncnn12 (single isomer, unassigned) [Example 5]
[B] CCC(c1cnn(-c2ccccc2F)c1)c1c(C#N)c(-c2cnc(C(F)(F)F)nc2)c2c(N)ncnn12 (single isomer, unassigned) [Example 14]
[C] CCC(c1cn(-c2ccc(F)c(F)c2)nn1)c1cc(-c2cnc(C(F)(F)F)nc2)c2c(N)ncnn12 (single isomer, unassigned) [Example 64]
Put the items in order so that reported EC50 rises from first to last. # list labels per requested ordering B, A, C

[I] CCC(c1cn(-c2ccc(F)cc2F)nn1)c1cc(-c2cnc(C(F)(F)F)nc2)c2c(N)ncnn12 (single isomer, unassigned) [Example 60]
[II] N#Cc1c(-c2cnc(C(F)(F)F)nc2)c2c(N)ncnn2c1Cc1cc(-c2ccccc2F)no1
Hi! Which is lower in terms of EC50, the first one I or the second one II ? Select an item and report its label. I
